Biological target: Apelin receptor (Homo sapiens)
Sequence (P35414 whole entry): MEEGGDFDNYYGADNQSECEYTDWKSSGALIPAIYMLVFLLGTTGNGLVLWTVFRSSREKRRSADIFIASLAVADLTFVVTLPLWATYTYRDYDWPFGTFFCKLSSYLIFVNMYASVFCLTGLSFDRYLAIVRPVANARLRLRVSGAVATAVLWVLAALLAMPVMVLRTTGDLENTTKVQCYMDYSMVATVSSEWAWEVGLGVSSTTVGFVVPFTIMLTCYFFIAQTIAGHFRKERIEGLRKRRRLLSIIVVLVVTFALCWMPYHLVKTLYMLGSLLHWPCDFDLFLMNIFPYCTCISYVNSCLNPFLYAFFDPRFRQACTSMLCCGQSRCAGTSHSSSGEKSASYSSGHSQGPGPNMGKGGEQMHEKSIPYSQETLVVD
Test: Agonist activity at human APJ receptor expressed in HEK293T cells assessed as compound stimulated inhibition of forskolin stimulated cAMP production incubated for 30 mins by HTRF assay
metricName: EC50 (nM)

{"compound": "CCCCc1nc(=O)c(C(=O)N2CCC(c3ccc(Cl)cc3)C2)c(O)n1-c1c(OC)cccc1OC (stereo in doubt; 10a)", "metricName": "EC50", "displayUnit": "nM", "readoutValue": 0.15}
{"compound": "CCCCc1nc(=O)c(C(=O)N2CCC(c3ccccn3)C2)c(O)n1-c1c(OC)cccc1OC (stereo in doubt; 11b)", "metricName": "EC50", "displayUnit": "nM", "readoutValue": 0.12}
{"compound": "CCCCc1nc(=O)c(C(=O)N2CCC(c3ccccn3)C2)c(O)n1-c1c(OC)cccc1OC (stereo in doubt; 11a)", "metricName": "EC50", "displayUnit": "nM", "readoutValue": 0.17}
